test: Average particle size (ζ-Average) and PDI by dynamic light scattering (Zetasizer Nano ZSP); format: physicochemical; settings: FlucmRNA-loaded LNP, 50:10:38.5:1.5
measured-metric: PDI

> print(dat)
                                   compound  reported
1  CCCCCCCCCCCCCCC(C)C(=O)OCCCCCCC(O)(CCCCCCOC(=O)C(C)CCCCCCCCCCCCCC)CCCCN(CCC)CCC (stereo not drawn)     0.045
2  CCCCCCCC(CCCCC)C(=O)OCCCCCCC(O)(CCCCCCOC(=O)C(CCCCC)CCCCCCC)CCCCOC(=O)C1CCN(C)CC1 (stereo not drawn) [CL15F 9-5]     0.037
3  CCCCCCCCCC(CCCCCCCCC)C(=O)OCCCCCCC(O)(CCCCCCOC(=O)C(CCCCCCCCC)CCCCCCCCC)CCCCN(CCC)CCC     0.014

I: CCCCCCCCCCCC(CCC)C(=O)OCCCCCCC(O)(CCCCCCOC(=O)C(CCC)CCCCCCCCCCC)CCCCN(CCC)CCC (stereo not drawn)
II: CCCCCCCCCCC(CCCCCCCCCC)C(=O)OCCCCCCC(O)(CCCCCCOC(=O)C(CCCCCCCCCC)CCCCCCCCCC)CCCCN(CCC)CCC
**Q:** Between the two listed entries I and II , which has its PDI at the higher number? Provide the label of your selected option as the answer.
**A:** I
(I: 0.044, II: 0.019)
